- Assay remarks: chemical genetic growth profiling, strain panel (AID 1159580);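 further: tested at 20 µM; growth read once vehicle control cultures reached saturation at 30 °C; 1 = growth at the plate median or of vehicle wells; lower values mean less growth of the strain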
- Details: S. cerevisiae deletion strains, growth OD, locus YNL298W, strain CLA4, active compounds read low
Out of some 5,500 compounds screened, about 2,000 (36%) were called active. Roughly 18% stayed inconclusive and do not appear here. The list shows a part of the results.
Each record here notes measured normalized growth.
Number only, please.

Examples from the recorded data:
[[record]]
molecule = "c1ccc2c3c([nH]c2c1)CNCC3"
readout = "normalized growth"
result_value = 0.99

[[record]]
molecule = "COC(=O)Oc1ccccc1C(=O)O"
readout = "normalized growth"
result_value = 1.02

[[record]]
molecule = "Cc1ccc2cc3c(ccc4ccccc43)c3c2c1CC3"
readout = "normalized growth"
result_value = 0.949

[[record]]
molecule = "O=C1O[C@H](C(O)CO)C(O)=C1O (some centres undefined)"
readout = "normalized growth"
result_value = 0.979


Exercise: For CC(=O)O[C@H]1C[C@@H](OC(C)=O)C(C)(C)C2C[C@@H](OC(C)=O)[C@@]3(C)C4=CC(=O)O[C@@H](c5ccoc5)[C@]4(C)CCC3[C@]21C (some centres undefined) , what is its reported normalized growth?
Solution: 0.995

Exercise: For `c1ccc2c(c1)cc1ccc3cccc4ccc2c1c34` , what is its reported normalized growth?
Solution: 1.01

Exercise: For CC1(C)C(O)CC(O)C2(C)C1CC(=O)C1(C)C2CCC2(C)C(C(=O)O)OC(=O)C3OC321 (centres undefined) , what is its reported normalized growth?
Solution: 1.01

Exercise: For `Nc1ncn([C@@H]2O[C@H](CO)[C@@H](O)[C@H]2O)c(=O)n1` , what is its reported normalized growth?
Solution: 1

Exercise: For Cc1c(O)c(O)cc2c1CC=C1[C@@]2(C)CC[C@@]2(C)C3C[C@](C)(C(=O)O)CC[C@]3(C)CC[C@]12C (some centres undefined) , what is its reported normalized growth?
Solution: 1.01
